Entries and their Percent Effect values follow.
# System: Wolbachia pipientis
# Assay Comment: Anti-Wolbachia Cell-Based Screen
# Type: functional
# Set-up: scale not given: in the data most compounds retested in dose-response had high values
# Experimental Context: 5 µM
Out of some 48,000 compounds screened, about 13,000 (27%) showed an effect of 50% or more. Some of the results follow.
Quick reminder: number only, in %, skip the unit.

# example entries with known answers
COCCOc1ccccc1C(=O)NCCN(C)C(C)C: 86.22
CC(C)C(=O)N1CCOC2(COCCN(c3ncccn3)C2)C1 (stereo not given): 1.497
CCC(C)N(C)CCNC(=O)c1ccccc1OCCOC (stereo not given): 91.86
CN(C)CC(=O)N1CCC2(CC1)COCCN(Cc1ccncc1)C2: -9.31

Okay, now this compound:
## Task Look up Percent Effect for this compound: CN(CCCNC(=O)c1ccccc1OCC(N)=O)CC(F)(F)F
## Result 8.203

* * *

# Tested on: Wolbachia pipientis
# Assay Comment: Anti-Wolbachia Cell-Based Screen
# Assay type: functional
# Set-up: scale not given: in the data most compounds retested in dose-response had high values
# Experimental Context: 5 µM
Screen size: about 48,000 compounds; about 13,000 (27%) showed an effect of 50% or more. The list shows a part of the results.
Measured Metric: Percent Effect (%)
The reply should contain only the number, in %.

Solved cases (3 shown):
Cc1cnc(N2CCC(c3ccccc3)CC2)nc1-c1ccnn1C: -8.504
Cc1cccc(CS(=O)(=O)CC(=O)N(C)Cc2ccccc2F)c1: -4.083
CN(C)C(=O)C1CN(Cc2ccsc2)CCN(S(C)(=O)=O)C1 (stereo unspecified): 92.25

## Task Form field: reported Percent Effect of CCc1nnc(N2C[C@@H](CN(C)CCO)[C@@H](CO)C2)s1
## Result -3.241

## Task Note, next up: CN(C)C(=O)C1CN(Cc2cscn2)CCN(S(C)(=O)=O)C1 (stereo unspecified)
## Result 29.17

## Task Repeat with O=C(NCCCOC1CCOC1)NC(C1CC1)C1CC1 (stereo unspecified)
## Result -5.056

## Task Can you handle O=C(O)C(F)(F)F.O=C(O)[C@]12CCCN(Cc3cccs3)C[C@H]1CN(c1ncccn1)C2 next?
## Result 1.756

## Task What would you report for Cc1ccc(-c2nc(CN3CCC(C(=O)N(C)C)CC3)cs2)o1 ?
## Result 9.027

## Task Continue with CC(C)Cc1ccc(S(=O)(=O)NCCCN2CCNC(=O)C2)cc1
## Result 7.437

## Task Entry to check: Cc1ccc2c(c1)C(NCc1nccn1Cc1ccccc1)CCCO2 (stereo unspecified)
## Result -18.78

## Task Now this one: CCc1nccn1C1CCCN(C(=O)c2ccc(C(N)=O)cn2)C1 (stereo unspecified)
## Result 6.395

* * *

# Percent Effect annotations
# Tested on: Wolbachia pipientis
# Assay Comment: Anti-Wolbachia Cell-Based Screen
# Format: functional
# Parameters: scale not given: in the data most compounds retested in dose-response had high values
# Experimental Context: 5 µM
The campaign covered roughly 48,000 compounds. About 13,000 (27%) showed an effect of 50% or more. This is one part of the list.
The figure you give is taken to be in %; do not add the unit.

// solved cases for Percent Effect follow
COc1ccc2[nH]nc(CN3CCC(C(C)N4CCCC4)CC3)c2c1 (configuration not stated): -10.16
Cc1cc(NC(=O)CNC(C)(C)c2nc(C)c(C)s2)no1: -14.55
CC(C)NC(=O)N1CCCCCC1C1CCN(c2ncccn2)CC1 (configuration not stated): -15.72
CC(C)N1CCC(NC(=O)NCc2ccccc2)CC1: 1.205
CC(C)NC(=O)N1CCCCC1c1nnc2n1CCNC2 (configuration not stated): 134
O=C1COc2cc(S(=O)(=O)NCCC3=CCCCC3)c(Br)cc2N1: 12.05
Cc1ccc(N2CCC(c3[nH]ncc3Cc3ccccc3)CC2)nn1: 27.05
COCCn1c2c(ccc1=O)CCN(C(=O)C1CC=CC1)CC2: 102.1
CC(C)n1c2ccccc2c2c1cc(C(=O)N(C)C)n2S(C)(=O)=O: 91.91
CCN(CC)c1ccc(CNC(=O)c2cnccn2)cn1: 2.528

## Task // lookup Percent Effect for COc1ccc(CC(=O)N2CCN(c3nccn3C)CC2)cc1.Cl
## Result 92.57

## Task Param item: CC(C)(C)c1nnc(CSc2ccccn2)o1
## Result 4.822

## Task Would you kindly repeat that for Cc1cccc(S(=O)(=O)N2CSCC2C(=O)NC(C)(C)C)c1 (configuration not stated) ?
## Result -10.25

## Task Param item: CC(C)n1c2ccccc2c2c1cc(C(=O)NC1CC1)n2C(=O)N(C)C
## Result 111.7

## Task Next: CC(C)[C@@H]1CN(CC(=O)NCc2ccco2)C[C@H]1NS(=O)(=O)N(C)C
## Result -2.04
